- Test system: PPARg DBDmut:RXRa IVT, anti-PPARg (DBD mutation: PPARg1 K132A/R137A, NR concentration 270 nM, RXRa partner concentration 90 nM)
- EXPERIMENT: PBM binding z-score (relative to random genomic background probes); higher = stronger binding; sequences stand for … in GC…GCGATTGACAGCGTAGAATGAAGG
RECORDED METRIC: PBM binding z-score
Numbers only.

Here are 5 sequences together with their reported answers.
1. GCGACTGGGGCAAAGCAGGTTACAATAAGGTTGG
-0.466
2. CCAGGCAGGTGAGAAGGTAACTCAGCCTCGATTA
-1.38
3. GCTCGGAGGACAAGGTCAGAGCGTTGTCCGTAGA
-1.14
4. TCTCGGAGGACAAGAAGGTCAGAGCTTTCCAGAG
-0.347
5. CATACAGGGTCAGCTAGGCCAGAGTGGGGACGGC
-0.069

Quick batch: PBM binding z-score for everything below.
1. ATATGTAGGTTAGCTGGGGTGATTCAGACTAGGC
2. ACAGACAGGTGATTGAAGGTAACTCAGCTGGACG
3. CCTGCTAGGTCATGGTCAGCCAATCTACAGTATG

1: 1.88; 2: -0.375; 3: 0.352

###

- Tested on: PPARg DBDmut IVT, anti-PPARg (DBD mutation: PPARg1 K132A/R137A, NR concentration 270 nM)
- EXPERIMENT: PBM binding z-score (relative to random genomic background probes); higher = stronger binding; sequences stand for … in GC…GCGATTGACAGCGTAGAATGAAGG
Provide the reported PBM binding z-score of each item.
Numbers only.

Here are 6 sequences together with their reported answers.
1) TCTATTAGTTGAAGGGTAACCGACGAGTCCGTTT
0.761
2) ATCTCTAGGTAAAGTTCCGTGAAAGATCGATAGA
0.679
3) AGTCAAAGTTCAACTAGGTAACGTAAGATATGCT
1.11
4) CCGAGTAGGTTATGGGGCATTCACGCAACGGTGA
-0.799
5) TTACCAAGGTGAAGGTCGTTTATCCCTCTGTAGA
0.225
6) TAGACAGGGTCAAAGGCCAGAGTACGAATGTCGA
0.376

Quick batch: PBM binding z-score for everything below.
1. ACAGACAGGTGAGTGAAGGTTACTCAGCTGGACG
2. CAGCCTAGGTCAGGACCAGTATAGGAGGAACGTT
3. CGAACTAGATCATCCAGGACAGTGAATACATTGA
4. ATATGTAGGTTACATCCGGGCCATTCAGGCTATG
5. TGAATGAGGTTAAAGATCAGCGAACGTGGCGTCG
6. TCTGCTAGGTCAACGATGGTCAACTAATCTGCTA
7. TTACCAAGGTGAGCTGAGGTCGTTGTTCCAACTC
8. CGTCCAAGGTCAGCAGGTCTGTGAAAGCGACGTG

1. 0.037
2. -1.17
3. 0.684
4. 3.02
5. 0.131
6. 0.326
7. -0.688
8. -0.164

Quick batch: PBM binding z-score for everything below.
1. TAGCCTAGGTCATTGGGCCAGTGTAGTACGCATC
2. TCTAGTTGGTCAAAGGTCCCACACTCGAAATGCG

1. -0.249
2. 1.15

###

- System: RXRa DBDmut IVT, anti-RXR (DBD mutation: RXRa K156A/R161A, NR concentration 90 nM)
- EXPERIMENT: PBM binding z-score (relative to random genomic background probes); higher = stronger binding; sequences stand for … in GC…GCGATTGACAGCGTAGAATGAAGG
RECORDED METRIC: PBM binding z-score
Give bare numbers.

Here are 6 sequences together with their reported answers.
1. CCTCGGAGGGCAGAAGGTCAGAGCTGTCCGCTTT
-0.118
2. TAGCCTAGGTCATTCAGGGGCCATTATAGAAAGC
2.04
3. TCAGACAGGTGAAGTTAACTCAGGTACGCAGTCG
1.33
4. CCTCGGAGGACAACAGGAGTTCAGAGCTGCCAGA
0.979
5. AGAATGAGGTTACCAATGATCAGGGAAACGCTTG
0.994
6. CCTACTGGGCCAGTCAGAGGTCATTGATCATATG
0.705

Quick batch: PBM binding z-score for everything below.
1. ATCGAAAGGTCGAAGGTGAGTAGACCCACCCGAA
2. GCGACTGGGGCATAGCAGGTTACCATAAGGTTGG
3. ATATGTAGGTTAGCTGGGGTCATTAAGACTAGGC
4. TAGCCTAGGTCACTCAGGGGCCAGTATAGAAAGC
5. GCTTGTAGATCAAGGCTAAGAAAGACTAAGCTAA
6. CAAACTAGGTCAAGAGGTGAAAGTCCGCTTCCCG
7. ACATACGGGTCAACGAGGTTATAGCACGCGTATA
8. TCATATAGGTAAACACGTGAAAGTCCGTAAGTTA

[1, -0.432, 1.83, 0.581, -0.427, 1.5, 2.49, 1.31]

###

- Tested on: LXRa:RXRa (NR concentration 270 nM, RXRa partner concentration 90 nM)
- EXPERIMENT: PBM binding z-score (relative to random genomic background probes); higher = stronger binding; sequences stand for … in GC…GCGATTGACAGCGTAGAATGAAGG
Kind request: treat 1 as inclusive, so PBM binding z-score at 1 or higher is Fulfilled, anything lower is Not fulfilled.

1. GCATATAGGTAATACAAAGTGAAAGTCCGATTGT
Not fulfilled

Does the reported PBM binding z-score for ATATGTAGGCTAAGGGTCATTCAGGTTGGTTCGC fall at or above the 1 mark?
Fulfilled

Cool, now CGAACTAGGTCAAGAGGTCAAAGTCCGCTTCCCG
Fulfilled

Cool, now TCTAGCAGGCCAGAGGGTCACTCAGGAGGTACGG
Fulfilled

Cool, now AGTCAGAGTTCAGGACGAGGTAACGTAAAGCACG
Fulfilled

Cool, now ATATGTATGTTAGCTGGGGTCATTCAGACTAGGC
Fulfilled

###

Provide the reported PBM binding z-score of each item.
- System: PPARg DBDmut IVT, anti-PPARg (DBD mutation: PPARg1 K132A/R137A, NR concentration 270 nM)
- EXPERIMENT: PBM binding z-score (relative to random genomic background probes); higher = stronger binding; sequences stand for … in GC…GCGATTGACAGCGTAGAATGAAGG
One number for each entry.

Here are 5 sequences together with their reported answers.
1. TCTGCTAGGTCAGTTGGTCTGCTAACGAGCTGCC
-0.177
2. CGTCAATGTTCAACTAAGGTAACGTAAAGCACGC
0.928
3. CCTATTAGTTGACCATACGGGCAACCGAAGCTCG
0.71
4. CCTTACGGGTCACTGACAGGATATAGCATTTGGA
0.966
5. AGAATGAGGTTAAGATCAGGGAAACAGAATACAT
0.885

Quick batch: PBM binding z-score for everything below.
1. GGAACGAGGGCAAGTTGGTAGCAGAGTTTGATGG
2. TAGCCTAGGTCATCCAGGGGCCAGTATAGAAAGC

-0.423
-0.3

###

Provide the reported PBM binding z-score of each item.
- System: RARg:RXRa (NR concentration 270 nM, RXRa partner concentration 90 nM)
- EXPERIMENT: PBM binding z-score (relative to random genomic background probes); higher = stronger binding; sequences stand for … in GC…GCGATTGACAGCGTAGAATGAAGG
Answers are plain numbers.

Quick batch: PBM binding z-score for everything below.
1. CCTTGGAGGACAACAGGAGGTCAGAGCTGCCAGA
2. AATACAGGGTCTCTAGGCCAGAGTAGGTACGAAT

1. 3.49
2. 0.0798

Quick batch: PBM binding z-score for everything below.
1. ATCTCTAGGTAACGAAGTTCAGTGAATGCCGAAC
2. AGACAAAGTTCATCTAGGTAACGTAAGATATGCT
3. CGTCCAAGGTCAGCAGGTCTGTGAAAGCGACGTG

0.591
5.68
5.26

Quick batch: PBM binding z-score for everything below.
1. GATACAGGGTCAGCTAGAGGCCAGATTATGGAAA
2. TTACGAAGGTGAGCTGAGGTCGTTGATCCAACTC
3. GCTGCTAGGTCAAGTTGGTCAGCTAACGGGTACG
4. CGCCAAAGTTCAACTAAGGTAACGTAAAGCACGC

6.4
1.37
4.49
5.87

###

- System: LXRb:RXRa (NR concentration 270 nM, RXRa partner concentration 90 nM)
- EXPERIMENT: PBM binding z-score (relative to random genomic background probes); higher = stronger binding; sequences stand for … in GC…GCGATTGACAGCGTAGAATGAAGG
RECORDED METRIC: PBM binding z-score
Answers are plain numbers.

1. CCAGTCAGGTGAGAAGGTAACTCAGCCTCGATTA
-0.0607
2. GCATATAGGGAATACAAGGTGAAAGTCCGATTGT
-0.103

Quick batch: PBM binding z-score for everything below.
1. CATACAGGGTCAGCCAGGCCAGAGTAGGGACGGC
2. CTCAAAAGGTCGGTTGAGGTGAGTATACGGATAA
3. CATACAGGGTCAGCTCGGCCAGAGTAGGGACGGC
4. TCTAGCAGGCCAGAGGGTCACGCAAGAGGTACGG

1: 2.24; 2: 1.63; 3: 2.06; 4: 1.93
